target: full length human recombinant glucocorticoid receptor (Homo sapiens, UniProt P04150); construct: It contains some partially purified full length human recombinant glucocorticoid receptor; assay: Glucocorticoid Receptor Binding Assay (Glucocorticoid Receptor Competitor Assay far red kit, fluorescence polarization); conditions: competition with fluorescent GR ligand Fluormone GS Far Red, 3 hours at 22° C., pH 7.4; Ki calculated from IC50 by Cheng-Prusoff
MEASURED ENDPOINT: Ki

I am curious: what Ki value has been reported for Cc1cc([C@@](O)([C@@H](C)c2ccc(Oc3cc(C(F)(F)F)c(C(=O)O)cn3)cc2Cl)C(F)(F)F)cc(C)c1C#N (stereo in doubt) ?
1.4 nM

I am curious: what Ki value has been reported for CCN1C(=O)COc2ccc([C@@](O)([C@@H](C)c3ccc(Oc4ccc(C(=O)O)c(Cl)n4)cc3Cl)C(F)(F)F)cc21 (relative stereo) ?
35.9 nM

###

Target: full length human recombinant glucocorticoid receptor (Homo sapiens, UniProt P04150)
Construct: It contains some partially purified full length human recombinant glucocorticoid receptor
Sequence (P04150 1-777): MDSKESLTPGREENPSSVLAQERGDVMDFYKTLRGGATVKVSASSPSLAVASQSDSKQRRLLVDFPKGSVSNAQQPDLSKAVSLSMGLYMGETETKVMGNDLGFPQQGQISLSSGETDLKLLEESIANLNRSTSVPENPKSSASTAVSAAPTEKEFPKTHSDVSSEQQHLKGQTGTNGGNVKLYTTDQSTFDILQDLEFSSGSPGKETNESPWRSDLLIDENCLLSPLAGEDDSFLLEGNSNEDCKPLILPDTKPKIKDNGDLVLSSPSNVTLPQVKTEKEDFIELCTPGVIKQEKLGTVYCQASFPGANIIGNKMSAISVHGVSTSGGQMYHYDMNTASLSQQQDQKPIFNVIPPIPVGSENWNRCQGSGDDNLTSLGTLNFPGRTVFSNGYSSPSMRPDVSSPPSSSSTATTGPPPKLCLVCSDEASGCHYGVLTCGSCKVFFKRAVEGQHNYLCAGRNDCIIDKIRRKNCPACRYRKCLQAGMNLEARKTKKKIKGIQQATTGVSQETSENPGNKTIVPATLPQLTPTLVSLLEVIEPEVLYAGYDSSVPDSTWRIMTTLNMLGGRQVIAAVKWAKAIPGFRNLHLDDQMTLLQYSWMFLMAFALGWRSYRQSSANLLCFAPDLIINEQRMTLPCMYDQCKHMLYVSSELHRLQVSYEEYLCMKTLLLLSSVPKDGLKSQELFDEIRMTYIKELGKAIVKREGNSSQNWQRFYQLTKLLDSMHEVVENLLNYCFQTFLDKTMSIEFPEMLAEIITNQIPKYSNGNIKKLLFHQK
Test: Glucocorticoid Receptor Binding Assay (Glucocorticoid Receptor Competitor Assay far red kit, fluorescence polarization)
Conditions: competition with fluorescent GR ligand Fluormone GS Far Red, 3 hours at 22° C., pH 7.4; Ki calculated from IC50 by Cheng-Prusoff
As shown below, each of these compounds has a reported Ki value.
// note: answer is a bare numeric in nM

// known answers, use as guide
C[C@H](c1ccc(-c2ccc(C(=O)O)cc2F)cc1Cl)[C@@](O)(c1ccc2oc(=O)n(C)c2c1)C(F)(F)F (relative stereo) [Example 126]	0.5
C[C@H](c1ccc(Oc2ccc(C(=O)O)nn2)cc1Cl)[C@@](O)(c1ccc2oc(=O)n(C)c2c1)C(F)(F)F (relative stereo) [Example 201]	3.9
CC(c1ccc(Oc2ccc(C(=O)O)c(Cl)c2)cc1Cl)C(O)(c1ccc(C#N)cc1)C(F)(F)F (stereo not drawn) [Example 156]	192
C[C@H](c1ccc(-c2cccc(C(=O)O)c2)cc1Cl)[C@@](O)(c1ccc2c(c1)n(C)c(=O)n2C)C(F)(F)F (stereo in doubt) [Example 78]	1.3
C[C@H](c1ccc(OC(C)(C)C(=O)O)cc1Cl)[C@@](O)(c1ccc2oc(=O)n(C)c2c1)C(F)(F)F (stereo in doubt) [Example 230]	35.3

Now take the following compound into account.
I am curious: what Ki value has been reported for COC(=O)c1cnc(Oc2ccc([C@@H](C)[C@@](O)(c3ccc4oc(=O)n(C)c4c3)C(F)(F)F)c(Cl)c2)c(Cl)c1 (relative stereo) [Example 175] ?
1.8
